Test: qHTS for Inhibitors of the Functional Ribonucleoprotein Complex (vRNP) of Lymphocytic Choriomeningitis Arenaviruses (LCMV): Viability assay - alamar blue signal for LCMV Primary Screen (AID 1347085); further: nearly all actives have a fitted effect of over 80% in size
Settings: alamar blue viability counter-screen, LCMV vRNP screen cells; series mostly up to 57.5 µM
Inconclusive results are not listed. The source made the active and inactive calls. The call rests on the fitted dose curve; tested in HEK293 reporter line.
Could you please pick one outcome from this set? class 1 for active, class 0 for inactive

compound=CCCN(CCC)[C@@H]1CCc2ccc(O)cc2C1 label_value="class 0"

What outcome does the record of this test show for N=C1N=C(N)c2cc3ccccc3cc21 ? class 0

Tell me the assay call for O=C(O)c1ccc2cc(-c3ccc(O)c(C45CC6CC(CC(C6)C4)C5)c3)ccc2c1 please. class 0

Cited source: PubChem BioAssay (NCATS)
